Biological target: Human GO (Homo sapiens)
Construct: purchased Novus Biologicals NBP1-72412
Sequence (Q9UJM8 1-370): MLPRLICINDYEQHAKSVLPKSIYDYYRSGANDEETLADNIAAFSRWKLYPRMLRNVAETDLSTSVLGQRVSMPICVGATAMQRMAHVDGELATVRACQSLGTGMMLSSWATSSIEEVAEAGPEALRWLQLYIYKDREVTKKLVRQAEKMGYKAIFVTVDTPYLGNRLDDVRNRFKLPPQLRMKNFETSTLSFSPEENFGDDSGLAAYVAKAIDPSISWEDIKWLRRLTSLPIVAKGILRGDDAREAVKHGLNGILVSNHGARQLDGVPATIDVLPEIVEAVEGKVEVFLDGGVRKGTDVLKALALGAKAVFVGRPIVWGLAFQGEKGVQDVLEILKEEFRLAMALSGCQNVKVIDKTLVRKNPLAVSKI
Assay: GO enzymatic assay (coupled fluorescence/HRP assay, glycolate substrate)
Assay type: biochemical
pIC50: −log10 of the molar value.
readoutName: pIC50

Answered examples (4):
{"columns": ["compound", "result"],
 "data": [
  ["O=C(O)c1[nH]nnc1Oc1ccc(F)c(F)c1", "> 7.00"],
  ["O=C(O)c1[nH]nnc1-c1cccc(OC(F)(F)F)c1", "> 7.00"],
  ["O=C(O)c1[nH]nnc1-c1ccc2cc(Cl)ccc2c1", "> 7.00"],
  ["O=C(O)c1[nH]nnc1Oc1ccc(-c2ccc(Cl)c(Cl)c2)cc1 [Compound 165, 2,2,2-trifluoroacetate]", "> 7.00"]
]}

*Q* Query (compound): O=C(O)c1[nH]nnc1-c1ccc(-c2ccc(Cl)cc2)cc1 [Compound 126, 2,2,2-trifluoroacetate] ; field requested: pIC50
*A* > 7.00

*Q* Need pIC50 of CC(C)C(=O)OCn1nnc(Oc2ccc(Cl)c(Cl)c2)c1C(=O)O , thanks.
*A* 6.00 to 7.00

* * *

Overview of reported pIC50 across a group of molecules:
biological target: Human GO (Homo sapiens, UniProt Q9UJM8); construct: purchased Novus Biologicals NBP1-72412; assay: GO enzymatic assay (coupled fluorescence/HRP assay, glycolate substrate); assay type: biochemical; conditions: Table 2; read-out: Range (range of IC50 values calculated from the enzymatic assays)
pIC50: −log10 of the molar value.

{"columns": ["molecule", "result"],
 "data": [
  ["CC(=O)OCOC(=O)c1[nH]nnc1Oc1ccc2cc(Cl)ccc2c1", "> 7.00"],
  ["O=C(O)c1[nH]nnc1SC1CCC2(CCCC2)CC1 [Compound 311, 2,2,2-trifluoroacetate]", "> 7.00"],
  ["O=C(O)c1[nH]nnc1Oc1ccc(-c2cccc(C3CCOCC3)c2)cc1 [Compound 238, 2,2,2-trifluoroacetate]", "> 7.00"],
  ["O=C(O)c1[nH]nnc1-c1cc(OCC2CC2)cc(C(F)(F)F)c1", "> 7.00"]
]}

*Q* Short answer please: pIC50, Human GO (Homo sapiens, UniProt Q9UJM8), entry O=C(O)c1[nH]nnc1Oc1cc(OCC2CC2)cc(C(F)(F)F)c1
*A* 6.00 to 7.00

*Q* // fetch Human GO (Homo sapiens, UniProt Q9UJM8) pIC50 for CC(C)C(=O)OCOC(=O)c1[nH]nnc1Sc1ccc(-c2ccc(N3CCCCC3)cc2)cc1
*A* 5.00 to 6.00

* * *

target: Human GO (Homo sapiens); construct: purchased Novus Biologicals NBP1-72412; test: GO enzymatic assay (coupled fluorescence/HRP assay, glycolate substrate); format: biochemical; conditions: Table 2; read-out: Range (range of IC50 values calculated from the enzymatic assays)
Parameter IC50: see the listing below.

Would you please look over these solved cases?
{"columns": ["compound", "assayedTarget", "IC50"],
 "data": [
  ["O=C(O)c1[nH]nnc1-c1ccc(Cl)c(OCC2CC2)c1", "Human GO (Homo sapiens)", "100 to 1000 nM"],
  ["O=C(O)c1[nH]nnc1-c1cc2ccc(C(F)(F)F)cc2cn1", "Human GO (Homo sapiens)", "100 to 1000 nM"],
  ["O=C(O)c1[nH]nnc1Sc1ccc(-c2ccc(N3CCCCC3)cc2)cc1 [Compound 169, 2,2,2-trifluoroacetate]", "Human GO (Homo sapiens)", "< 100 nM"],
  ["O=C(O)c1[nH]nnc1SC1CCc2cc(F)c(F)cc2C1 (centres unmarked)", "Human GO (Homo sapiens)", "< 100 nM"],
  ["O=C(O)c1[nH]nnc1S[C@H]1CC[C@@H](c2ccc(N3CCCC3)cc2)CC1 [Compound 347, 2,2,2-trifluoroacetate]", "Human GO (Homo sapiens)", "< 100 nM"]
]}

*Q* Quick one: IC50 of O=C(O)c1[nH]nnc1OC1CCN(c2cc(Cl)cc(Cl)c2)CC1 [Compound 285, 2,2,2-trifluoroacetate] ?
*A* < 100 nM

*Q* Any idea what IC50 was measured for CC(=O)NCCOc1ccc(-c2ccc(Oc3nn[nH]c3C(=O)O)cc2)cc1 ?
*A* < 100 nM

*Q* Recorded IC50 of CCN(CC)C(=O)OCOC(=O)c1[nH]nnc1O[C@H]1CC[C@H](c2ccc(OC(F)(F)F)cc2)CC1 , please.
*A* > 10000 nM

*Q* Suppose we examine the compound N#Cc1ccc(N2CCC(Sc3nn[nH]c3C(=O)O)CC2)cc1 [Compound 344, 2,2,2-trifluoroacetate] ; what IC50 value has been reported?
*A* < 100 nM

*Q* Reported IC50 for N#Cc1ccc([C@H]2CC[C@@H](Sc3nn[nH]c3C(=O)O)CC2)cc1 : what is it?
*A* < 100 nM

*Q* I am curious: what IC50 value has been reported for O=C(O)c1[nH]nnc1Oc1ccc(-c2cccc3c2CCCC3)cc1 [Compound 223, 2,2,2-trifluoroacetate] ?
*A* < 100 nM

*Q* Give the measured IC50 of O=C(O)c1[nH]nnc1CN(Cc1ccccc1)c1ccc(-c2ccc(OC(F)(F)F)cc2)cc1 [Compound 196, 2,2,2-trifluoroacetate] .
*A* 100 to 1000 nM

*Q* Look up IC50: O=C(O)c1[nH]nnc1Oc1ccc(Cl)c(OCC2CCCC2)c1 [Compound 353, 2,2,2-trifluoroacetate]
*A* < 100 nM

*Q* # input compound: O=C(O)c1[nH]nnc1OC1CCc2cc(F)c(F)cc2C1 (centres unmarked) ; wanted: its IC50
*A* < 100 nM

* * *

Target: Human GO (Homo sapiens)
Construct: purchased Novus Biologicals NBP1-72412
Sequence (Q9UJM8 1-370): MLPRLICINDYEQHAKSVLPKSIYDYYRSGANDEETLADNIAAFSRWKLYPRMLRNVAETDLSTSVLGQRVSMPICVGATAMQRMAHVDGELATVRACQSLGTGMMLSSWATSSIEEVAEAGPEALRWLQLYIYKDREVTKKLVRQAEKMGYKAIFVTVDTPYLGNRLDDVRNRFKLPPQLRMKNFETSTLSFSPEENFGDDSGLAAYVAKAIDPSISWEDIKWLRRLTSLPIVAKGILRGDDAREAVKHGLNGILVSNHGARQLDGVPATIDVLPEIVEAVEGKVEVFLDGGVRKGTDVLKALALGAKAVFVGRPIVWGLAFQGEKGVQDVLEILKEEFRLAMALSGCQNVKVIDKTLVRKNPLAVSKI
Test: GO enzymatic assay (coupled fluorescence/HRP assay, glycolate substrate)
Type: biochemical
Conditions: Table 2; read-out: Range (range of IC50 values calculated from the enzymatic assays)
Each item that follows carries a reported IC50.

Would you please look over these solved cases?
{"columns": ["molecule", "assayedTarget", "IC50"],
 "data": [
  ["O=C(O)c1[nH]nnc1S[C@H]1CC[C@@H](c2ccc(C(F)(F)F)cc2)CC1", "Human GO (Homo sapiens)", "< 100 nM"],
  ["O=C(O)c1[nH]nnc1OC1Cc2cc(Cl)c(Cl)cc2C1 [Compound 241, 2,2,2-trifluoroacetate]", "Human GO (Homo sapiens)", "< 100 nM"],
  ["O=C(O)c1[nH]nnc1Sc1ccc(-c2ccc(OC(F)(F)F)cn2)cc1 [Compound 321, 2,2,2-trifluoroacetate]", "Human GO (Homo sapiens)", "< 100 nM"],
  ["O=C(O)c1[nH]nnc1Oc1ccc(-c2ccc3cnccc3c2)cc1", "Human GO (Homo sapiens)", "< 100 nM"],
  ["O=C(O)c1[nH]nnc1O[C@H]1CC[C@H](c2ccc(Cl)c(Cl)c2)CC1", "Human GO (Homo sapiens)", "< 100 nM"],
  ["CN(Cc1nn[nH]c1C(=O)O)c1ccc2cc(Cl)ccc2c1 [Compound 180, 2,2,2-trifluoroacetate]", "Human GO (Homo sapiens)", "< 100 nM"],
  ["O=C(O)c1[nH]nnc1OC1Cc2ccc(OC(F)(F)F)cc2C1 (stereo not shown)", "Human GO (Homo sapiens)", "< 100 nM"],
  ["O=C(O)c1[nH]nnc1NCc1ccc2cc(Cl)ccc2c1", "Human GO (Homo sapiens)", "100 to 1000 nM"]
]}

*Q* Provide the documented IC50 with Human GO (Homo sapiens) as the system for N#Cc1ccc(-c2ccc(Oc3nn[nH]c3C(=O)O)cc2)cc1
*A* < 100 nM

*Q* Give Human GO (Homo sapiens) IC50 for O=C(O)c1[nH]nnc1Oc1ccc2c(c1)OCCO2 [Compound 231, 2,2,2-trifluoroacetate]
*A* < 100 nM

*Q* Can you look up IC50 on Human GO (Homo sapiens) for CC(=O)N1CCN(c2cccc(-c3ccc(Oc4nn[nH]c4C(=O)O)cc3)c2)CC1 [Compound 233, 2,2,2-trifluoroacetate] ?
*A* < 100 nM

*Q* Find the measured IC50: item O=C(O)c1[nH]nnc1Oc1ccc(C2CCOCC2)cc1 [Compound 263, 2,2,2-trifluoroacetate] , target or system Human GO (Homo sapiens).
*A* < 100 nM

*Q* Identify the measured IC50 of O=C(O)c1[nH]nnc1Oc1ccc(C2CCC(N3CCCCC3)CC2)cc1 (stereo not shown) [Compound 306, 2,2,2-trifluoroacetate] for Human GO (Homo sapiens).
*A* 100 to 1000 nM

*Q* Short answer please: IC50, Human GO (Homo sapiens), entry O=C(O)c1[nH]nnc1SCC1C2CN(c3ccc(Cl)c(Cl)c3)CC12 (stereo not shown)
*A* < 100 nM

*Q* Tell me reported IC50 for O=C(O)c1[nH]nnc1SCc1ccc(N2CCCCC2)c2ccccc12 [Compound 316, 2,2,2-trifluoroacetate] , tested with Human GO (Homo sapiens).
*A* < 100 nM

*Q* # returns recorded IC50 (system: Human GO (Homo sapiens)) for O=C(O)c1[nH]nnc1S[C@H]1CC[C@@H](c2cc(Cl)cc(OC(F)(F)F)c2)CC1
*A* < 100 nM

*Q* Missing value: IC50, Human GO (Homo sapiens), entry O=C(OCOC(=O)c1[nH]nnc1Oc1ccc2cc(Cl)ccc2c1)c1ccccc1 . Fill in?
*A* 1000 to 10000 nM

*Q* Request body: readout IC50, system Human GO (Homo sapiens), query NC(=O)c1ccc([C@H]2CC[C@H](Oc3nn[nH]c3C(=O)O)CC2)cc1 [Compound 364, 2,2,2-trifluoroacetate] . Return the value.
*A* < 100 nM

*Q* Provide the documented IC50 with Human GO (Homo sapiens) as the system for CC1(C)CCCc2cc(Oc3nn[nH]c3C(=O)O)ccc21
*A* 100 to 1000 nM

*Q* Hi! What's the reported IC50 for COCCOc1cccc(-c2ccc(Oc3nn[nH]c3C(=O)O)cc2)c1 on Human GO (Homo sapiens)?
*A* < 100 nM

*Q* For Human GO (Homo sapiens), provide IC50 of O=C(O)c1[nH]nnc1Oc1ccc(Cl)c(OCc2ccc(F)cc2)c1 please.
*A* < 100 nM

*Q* Request - read-out IC50 | tested on Human GO (Homo sapiens) | molecule O=C(O)c1[nH]nnc1Oc1ccc(-c2cccc(CN3CCCCC3=O)c2)cc1
*A* < 100 nM

*Q* What measured IC50 is associated with O=C(O)c1[nH]nnc1Oc1ccc(Cl)c(OC(F)(F)F)c1 on Human GO (Homo sapiens)?
*A* < 100 nM

*Q* Query the reported IC50 for Human GO (Homo sapiens); item: O=C(O)c1[nH]nnc1Oc1ccc(N2CCC(F)(F)CC2)cc1 [Compound 301, 2,2,2-trifluoroacetate]
*A* 100 to 1000 nM

*Q* What is its IC50 for Human GO (Homo sapiens)? Entry: CN1CCCc2cc(-c3ccc(Sc4nn[nH]c4C(=O)O)cc3)ccc21 [Compound 175, 2,2,2-trifluoroacetate]
*A* < 100 nM

*Q* Form field - read-out: IC50; system: Human GO (Homo sapiens); submitted item: O=C(O)c1[nH]nnc1Oc1ccc(C2CCC(F)(F)CC2)cc1
*A* < 100 nM

*Q* Lab request: please report IC50 under test system Human GO (Homo sapiens) for O=C(O)c1[nH]nnc1Nc1cnc2cc(Cl)ccc2c1
*A* 1000 to 10000 nM

*Q* Record lookup: for Human GO (Homo sapiens), what IC50 belongs to O=C(O)c1[nH]nnc1Sc1cccc(OC2CCCC2)c1 [Compound 351, 2,2,2-trifluoroacetate] ?
*A* 100 to 1000 nM
